Data provenance is patent US8975398B2.

molecular target: UniProt P43490
Property Name: pIC50
Answers are plain numbers, as −log10 of the molar value.

Examples with answers:
>>> print(df.to_string())
                                   compound  recorded_value
0  O=C(Nc1ccc(C2CCN(C(=O)c3ccc(Cl)cc3Cl)CC2)cc1)C1CN(c2cccnn2)C1 [Example 362]            9.08
1  CCCCC(=O)N1CCC(c2ccc(NC(=O)C3CN(c4cccnc4C)C3)cc2)CC1 [Example 159]            7.21
2  CC(=O)N1CCC(c2ccc(NC(=O)C3CN(c4cccnn4)C3)cc2)CC1 [Example 316]            9.03

Kindly review the next compound as well.
Send back UniProt P43490 pIC50 of CCCCC(=O)N1CC(Oc2ccc(NC(=O)C3CN(c4ccnnc4)C3)cc2)C1 [Example 210] only.
7.42

----------
target: NAMPT (human, recombinant, C-terminally His-tagged) (Homo sapiens, UniProt P43490); test: Time-Resolved Fluorescence Resonance Energy Transfer (TR-FRET) Binding Assay of NAMPT; settings: 6.8 nM NAMPT, 200 nM probe, equilibrated 3 hours, absence of substrates
Sequence (P43490 whole entry): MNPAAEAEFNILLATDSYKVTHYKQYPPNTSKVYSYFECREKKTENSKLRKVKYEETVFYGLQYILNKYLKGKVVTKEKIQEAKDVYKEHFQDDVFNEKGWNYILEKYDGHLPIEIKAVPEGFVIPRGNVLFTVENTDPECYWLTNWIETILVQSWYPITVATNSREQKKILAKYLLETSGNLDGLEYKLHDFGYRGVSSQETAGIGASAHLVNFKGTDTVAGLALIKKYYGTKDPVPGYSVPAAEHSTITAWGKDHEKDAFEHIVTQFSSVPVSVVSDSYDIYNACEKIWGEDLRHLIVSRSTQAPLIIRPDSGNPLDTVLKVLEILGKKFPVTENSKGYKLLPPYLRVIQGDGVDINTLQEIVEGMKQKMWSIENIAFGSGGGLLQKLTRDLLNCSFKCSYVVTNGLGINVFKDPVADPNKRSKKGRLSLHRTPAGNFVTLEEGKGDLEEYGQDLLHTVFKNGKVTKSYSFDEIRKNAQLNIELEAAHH
Would you mind telling me the reported IC50 of each entry?
Numbers only, in nM.

Examples with answers:
>>> df
                                   compound  property_name  recorded_value
0  COCC(=O)N1CCC(Oc2ccc(NC(=O)C3CN(c4ccnnc4)C3)cc2)CC1           IC50             274
1  CC1CC1C(=O)N1CCC(c2ccc(NC(=O)C3CN(c4cccnc4)C3)cc2)CC1 (centres unmarked)           IC50            8.84
2  CC(C)CC(=O)N1CCC(c2ccc(NC(=O)C3CN(c4cccnn4)C3)cc2)CC1           IC50            26.4

I would be grateful if you could provide IC50 for each of the following entries.
1. O=C(Nc1ccc(OC2CCN(C(=O)Cc3ccc(C(F)(F)F)cc3)CC2)cc1)C1CN(c2ccnnc2)C1
2. O=C(Nc1ccc(OC2CCN(C(=O)c3ccc(F)cc3)CC2)cc1)C1CN(c2cccnn2)C1
3. O=C(Nc1ccc(OC2CN(C(=O)c3ccoc3)C2)cc1)C1CN(c2ccnnc2)C1
4. CCCC(=O)N1CCC(c2ccc(NC(=O)C3CN(c4cccnc4)C3)cc2)CC1
5. CCC(C)C(=O)N1CCC(c2ccc(NC(=O)C3CN(c4cccnn4)C3)cc2)CC1 (centres unmarked)

1. 128
2. 158
3. 61.7
4. 16.9
5. 24.9

----------
Measured IC50 on NAMPT (Homo sapiens, UniProt P43490) follows.
Sequence (P43490 whole entry): as above
Give bare numbers, in nM.

                                   compound  property_name  recorded_value
0  Cc1ncccc1N1CC(C(=O)Nc2ccc(C3CCN(C(=O)C(C)C(C)C)CC3)cc2)C1 (stereo not shown)           IC50             103

I would be grateful if you could provide IC50 for each of the following entries.
1. C=CCCC(=O)N1CCC(c2ccc(NC(=O)C3CN(c4cccnn4)C3)cc2)CC1
2. CCC(C)CC(=O)N1CCC(c2ccc(NC(=O)C3CN(c4cccnn4)C3)cc2)CC1 (stereo not shown)
3. O=C(Nc1ccc(OC2CCN(C(=O)c3ccc(C(F)(F)F)cc3)CC2)cc1)C1CN(c2cccnn2)C1

1. 0.83
2. 0.885
3. 1.27
